Values from ChEMBL document CHEMBL1128317

- testTarget: UniProt:Q02769
- Sequence (Q02769 whole entry): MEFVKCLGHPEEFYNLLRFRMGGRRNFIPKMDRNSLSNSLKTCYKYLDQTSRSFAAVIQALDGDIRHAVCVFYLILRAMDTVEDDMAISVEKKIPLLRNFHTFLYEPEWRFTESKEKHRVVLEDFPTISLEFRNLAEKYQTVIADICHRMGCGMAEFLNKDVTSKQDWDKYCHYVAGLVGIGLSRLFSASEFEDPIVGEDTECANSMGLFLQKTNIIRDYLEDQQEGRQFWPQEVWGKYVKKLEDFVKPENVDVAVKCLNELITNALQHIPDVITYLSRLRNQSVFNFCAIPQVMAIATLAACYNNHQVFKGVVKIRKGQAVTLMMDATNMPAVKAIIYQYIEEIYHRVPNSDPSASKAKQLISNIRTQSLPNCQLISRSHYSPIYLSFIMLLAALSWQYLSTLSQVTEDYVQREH
pIC50: −log10 of the molar value.
Below: a set of entries, each annotated with reported pIC50.
readoutKind: pIC50

>>> df
                                    molecule      testtarget  obsvalue
 0  CCCCOc1ccc(OCC(CNC(C)C)OC)cc1 (configuration not stated)  UniProt:Q02769      5.48
 1         C=CCc1cc(-c2ccccc2)ccc1OCCCNC(C)C  UniProt:Q02769     11.40
 2          C=CCc1cc(NC(=O)CC)ccc1OCCCNC(C)C  UniProt:Q02769      8.30
 3  C=CCc1ccccc1OCC(O)CNC(C)C (configuration not stated) [ALPRENOLOL]  UniProt:Q02769      5.38
 4                 C=CCc1cc(N)ccc1OCCCNC(C)C  UniProt:Q02769      6.60
 5             C=CCc1cc(OCCCC)ccc1OCCCNC(C)C  UniProt:Q02769      9.22
 6           C=CCc1cc(NC(C)=O)ccc1OCCCNC(C)C  UniProt:Q02769      7.19
 7                    C=CCc1ccccc1OCCCNC(C)C  UniProt:Q02769      7.25
 8  CCOC(=O)c1ccc(OCC(O)CNC(C)C)cc1 (configuration not stated)  UniProt:Q02769      5.85
 9  C=CCc1cc(C(=O)CCC)ccc1OCC(O)CNC(C)C (configuration not stated)  UniProt:Q02769      8.35
10             CC(C)NCCCOc1cccc(-c2ccccc2)c1  UniProt:Q02769      6.22
11          C=CCc1cc(C(=O)CCC)ccc1OCCCNC(C)C  UniProt:Q02769      9.00
